# subject_of_test: IRAK3 (Homo sapiens, UniProt Q9Y616)
# Construct: IRAK Endogenous HTRF Degradation Assay; endogenous in cells
# Sequence (Q9Y616 whole entry): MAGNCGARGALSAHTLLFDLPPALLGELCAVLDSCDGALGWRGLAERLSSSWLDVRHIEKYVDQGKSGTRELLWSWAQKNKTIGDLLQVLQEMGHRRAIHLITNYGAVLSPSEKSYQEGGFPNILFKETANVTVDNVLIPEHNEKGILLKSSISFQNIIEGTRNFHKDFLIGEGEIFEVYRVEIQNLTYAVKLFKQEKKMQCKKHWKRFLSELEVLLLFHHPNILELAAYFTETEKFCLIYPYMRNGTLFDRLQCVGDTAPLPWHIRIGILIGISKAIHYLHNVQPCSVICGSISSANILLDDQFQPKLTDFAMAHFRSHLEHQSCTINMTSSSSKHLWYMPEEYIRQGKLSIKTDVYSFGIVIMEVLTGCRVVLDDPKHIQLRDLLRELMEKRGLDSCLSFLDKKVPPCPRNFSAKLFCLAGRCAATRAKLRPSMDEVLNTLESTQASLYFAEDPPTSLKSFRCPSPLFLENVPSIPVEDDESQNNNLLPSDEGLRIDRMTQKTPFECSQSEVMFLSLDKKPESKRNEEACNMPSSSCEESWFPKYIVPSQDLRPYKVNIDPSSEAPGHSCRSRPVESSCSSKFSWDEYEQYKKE
# assay_remarks: IRAK3 Biochemical Binding Assay (LanthaScreen Eu Kinase Binding)
# test_parameters: TR-FRET tracer displacement, 1 hour at room temperature
pIC50: −log10 of the molar value.
pIC50 below 7 gives n; pIC50 at or above it gives y.

Ask | Could you verify whether the entry Cc1cccc(-c2cnc(Nc3cccc(N4CCN(CCNC(=O)COc5ccc6c(c5)C(=O)N(C5CCC(=O)NC5=O)C6=O)CC4)c3)c3nccn23)c1 (stereo not drawn) shows pIC50 of no less than 7?
Reply | n

Now look at this entry.
Ask | Could you verify whether the entry Cc1cccc(-c2cnc(Nc3ccc(C4CCN(CCNC(=O)COc5ccc6c(c5)C(=O)N(C5CCC(=O)NC5=O)C6=O)CC4)cc3)c3nccn23)c1 (stereo not drawn) shows pIC50 of no less than 7?
Reply | n
